target: hCB1 receptor (Homo sapiens, UniProt P21554); assay: AequoScreen hCB1 receptor assay (flash luminescence, recombinant CHO-K1 cells); conditions: CHO-K1, read-out: Efficacy (% JWH-018 activity), Emax, Emax from dose-response curves, normalized to JWH-018 at 20 µg/mL; triplicates
Sequence (P21554 whole entry): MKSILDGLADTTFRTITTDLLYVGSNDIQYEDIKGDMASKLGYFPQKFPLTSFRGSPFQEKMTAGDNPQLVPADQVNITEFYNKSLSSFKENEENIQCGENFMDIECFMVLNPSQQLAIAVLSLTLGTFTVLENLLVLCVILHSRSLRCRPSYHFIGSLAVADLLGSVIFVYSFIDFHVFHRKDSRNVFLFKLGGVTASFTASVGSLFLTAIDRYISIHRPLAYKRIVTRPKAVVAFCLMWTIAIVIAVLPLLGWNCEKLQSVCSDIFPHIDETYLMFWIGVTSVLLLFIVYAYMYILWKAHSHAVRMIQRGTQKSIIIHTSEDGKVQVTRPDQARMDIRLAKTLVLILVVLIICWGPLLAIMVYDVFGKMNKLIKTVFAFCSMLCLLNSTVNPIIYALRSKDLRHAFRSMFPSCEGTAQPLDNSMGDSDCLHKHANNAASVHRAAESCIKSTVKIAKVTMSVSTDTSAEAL
recordedEndpoint: Emax (%)
Reply numerically in %, unit not repeated.

> print(dat)
                                   compound  recordedendpoint  resultnumber
1  CCCCCn1cc(C(=O)c2cccc3ccccc23)c2ccccc21 [JWH-018, reference compound]              Emax           102
2  CC(O)CCCn1cc(C(=O)c2cccc3ccccc23)c2ccccc21 (centres unmarked)              Emax           105
3  CCCCCn1nc(C(=O)c2cccc3ccccc23)c2ccccc21 [THJ-018, reference compound]              Emax          96.4
4  O=C(c1cccc2ccccc12)c1cn(CCCCCF)c2cccc(O)c12              Emax          94.6
5  CCCC(O)Cn1cc(C(=O)c2cccc3ccccc23)c2ccccc21 (centres unmarked)              Emax            82
6  O=C(O)CCCCn1cc(C(=O)c2cccc3ccccc23)c2ccccc21              Emax          0.23

Here's the next entry for you.
Kindly note the recorded Emax for O=C(c1cccc2ccccc12)c1cn(CCCCCF)c2ccccc12 [AM-2201, reference compound] , which is 99.7

Sourced from paper PMC12932713
